Test system: HEK-293T
Assay: Multiplex assay against HEK293T
Format: toxicity, cell-based
Details: human, 48 h, 1 µM, compound concentration 1 uM, replicate 2
READOUT_NAME: Population Apoptotic (%)
Use % as the unit, but write only the number.

CCCS(=O)(=O)c1nc(NC2CC2)cc(-c2ccc3c(ccn3C3CC(C)(C)NC(C)(C)C3)c2)n1 has a reported Population Apoptotic (%) of 28

Field Population Apoptotic (%) (entry CCc1cccc(CC)c1NC(=O)c1nn(C)c2c1CCc1cnc(Nc3ccc(C(=O)NC4CCN(C)CC4)cc3OC(F)(F)F)nc1-2 ) reads 27

For reference, reported Population Apoptotic (%) for Cl.Oc1ccc2c3c1O[C@H]1c4[nH]c5c(c4C[C@@]4(O)[C@@H](C2)N(CC2CC2)CC[C@]314)C[C@@]1(O)[C@H]2Cc3ccc(O)c4c3[C@@]1(CCN2CC1CC1)[C@H]5O4 stands at 10

Recorded Population Apoptotic (%) (molecule Cl.O=c1c2cccn2c2ccccc2n1CCCN1CCC(c2ccc(Cl)cc2)CC1 ): 31

The recorded Population Apoptotic (%) for CNc1cc(Oc2cc(C(=O)Nc3cc(N4CCN(C)CC4)cc(C(F)(F)F)c3)ccc2C)ncn1 is 40

Recorded result, COc1cc(N2CCN(C)CC2)ccc1Nc1ncc2c(n1)N(C)c1ccccc1C(=O)N2C , Population Apoptotic (%): 18

Short answer for O=C(Nc1ccc(-c2ccnc(Nc3ccc(N4CCOCC4)cc3)n2)cc1)[C@@H]1CCCN1 : Population Apoptotic (%) was 10

For record CCOc1cc(C(=O)N2CCC(N3CCN(C)CC3)CC2)ccc1Nc1ncc2c(n1)N(C1CCCC1)c1ccccc1C(=O)N2C the listed Population Apoptotic (%) is 58

Documented Population Apoptotic (%) of CCCn1c(=O)c2[nH]c(-c3cnn(Cc4cccc(C(F)(F)F)c4)c3)nc2n(CC)c1=O [GS 6201] : 14

Briefly, Population Apoptotic (%) measured for CCOc1cc2ncc(C#N)c(Nc3ccc(OCc4ccccn4)c(Cl)c3)c2cc1NC(=O)/C=C/CN(C)C [NERATINIB] : 17

For reference, reported Population Apoptotic (%) for CN1CCC(=C2c3ccccc3CC(=O)c3sccc32)CC1.O=C(O)/C=C/C(=O)O [KETOTIFEN FUMARATE] stands at 16

Given item CCN1CCN(Cc2ccc(Nc3ncc(F)c(-c4cc(F)c5nc(C)n(C(C)C)c5c4)n3)nc2)CC1.CS(=O)(=O)O , the value recorded as its Population Apoptotic (%) is 62

What the record says about CN1C2CCC1CC(OC(c1ccc(F)cc1)c1ccc(F)cc1)C2.Cl (configuration not stated) : Population Apoptotic (%) is 11

Measured Population Apoptotic (%), Cc1ccc(C(=O)Nc2cccc(C(F)(F)F)c2)cc1Nc1nc(-c2cccnc2)nc2c1cnn2C : 47

According to the records, this molecule S=C(NCCCc1c[nH]cn1)NCCCN(Cc1ccc(Cl)c(Cl)c1)c1ccc(Br)cn1 displays Population Apoptotic (%) of 35

GET /value?item= O=C1N/C(=N/c2ccccc2F)S/C1=C\c1ccc(C(=O)O)cc1 &field=Population Apoptotic (%) returns 14

For this molecule ( O=C(Nc1ccc(Cl)cc1)Nc1cccc(-c2cccc(N3CCCC3)n2)c1 ), measured Population Apoptotic (%) is 7
